target-under-test: β-secretase(BACE) (Homo sapiens)
Construct: purchased Panvera
Sequence (P56817 46-501): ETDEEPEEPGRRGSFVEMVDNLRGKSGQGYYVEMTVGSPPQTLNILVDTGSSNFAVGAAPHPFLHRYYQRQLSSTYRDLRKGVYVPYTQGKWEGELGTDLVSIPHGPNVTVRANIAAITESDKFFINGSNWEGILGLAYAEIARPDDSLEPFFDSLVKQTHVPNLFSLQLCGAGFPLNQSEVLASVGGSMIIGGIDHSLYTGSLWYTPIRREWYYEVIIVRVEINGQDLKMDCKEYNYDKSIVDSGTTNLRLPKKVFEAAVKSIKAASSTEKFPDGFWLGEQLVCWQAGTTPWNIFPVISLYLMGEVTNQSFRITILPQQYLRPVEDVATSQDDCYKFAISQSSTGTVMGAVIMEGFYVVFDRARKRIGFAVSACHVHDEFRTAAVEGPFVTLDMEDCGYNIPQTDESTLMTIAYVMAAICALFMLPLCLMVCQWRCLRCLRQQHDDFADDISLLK
assay-method-text: BACE FS1% Inhibition Assay
Format: biochemical
recorded-conditions: 3 μM test compound; FS1 substrate
readout: % Inhibition (FS) 3 μM

Guide cases for % Inhibition (FS) 3 μM, answers given:
{"compound": "CC1CCC(NC(=O)c2cccc(CN3Cc4cc(Oc5ccccc5)ccc4N=C3N)c2)CC1 (stereo not drawn)", "target-under-test": "β-secretase(BACE) (Homo sapiens)", "% Inhibition (FS) 3 μM": "<30%"}
{"compound": "NC1=Nc2ccc(Oc3ccccc3)cc2CN1C1CCCN(C(=O)C2CCCCC2)C1 (stereo not drawn)", "target-under-test": "β-secretase(BACE) (Homo sapiens)", "% Inhibition (FS) 3 μM": "<30%"}

Okay, next one:
Q) Recall the recorded % Inhibition (FS) 3 μM for CCCC=Cc1ccc2c(c1)CN(CCNC(=O)C(C)(C)C)C(N)=N2 with β-secretase(BACE) (Homo sapiens) and state it.
A) <30%
